Catalogue of compounds with associated pIC50
# PROCEDURE SUMMARY: Inhibition of HCV RNA-dependent RNA polymerase
# Design: species or system Hepacivirus hominis
pIC50: −log10 of the molar value.
ENDPOINT NAME: pIC50

>>> reading("O=C(O)/C(O)=C/C(=O)c1cccc(OCc2ccccc2)c1")
5.10
>>> reading("O=C(O)/C(O)=C/C(=O)c1cccc(NCc2ccccc2)c1")
4.77

---

# Tested on: Hepatitis C virus
# PROCEDURE SUMMARY: Antiviral activity against HCV subgenomic replicon harboring NS5B gene transfected in human Huh7 cells
# Assay type: functional, Hepacivirus hominis
# MEASUREMENT CONTEXT: Huh-7
pEC50: −log10 of the molar value.
Recorded pEC50 values for a group of molecules are listed next.
ENDPOINT NAME: pEC50

>>> reading("O=C(O)/C(O)=C/C(=O)c1cccc(NCc2ccccc2)c1")
4.55
>>> reading("O=C(O)/C(O)=C/C(=O)c1ccccc1OCc1ccc(Cl)cc1")
6.27
>>> reading("O=C(O)/C(O)=C/C(=O)c1ccc(OCc2ccc(Cl)cc2)cc1")
5.51
>>> reading("O=C(O)/C(O)=C/C(=O)c1ccc(OCc2ccccc2)cc1")
6.18
>>> reading("O=C(O)/C(O)=C/C(=O)c1cccc(NCc2ccc(Cl)cc2)c1")
6.09
>>> reading("O=C(O)/C(O)=C/C(=O)c1cccc(OCc2ccccc2)c1")
4.52
>>> reading("O=C(O)/C(O)=C/C(=O)c1ccccc1OCc1ccccc1")
4.40
